Where these numbers come from: ChEMBL document CHEMBL2010675

# Assay Text: Permeability from apical to basolateral side in human Caco2 cells
# Assay type: ADME, cell-based
# Condition Parameters: Caco-2, read-out: permeability
Quantity: Papp A→B (×10⁻⁶ cm/s)

# Query Smiles, Quantity, Unit Text, Readout Value
data = [
    ("CC[C@@H]1C[C@]1(NC(=O)[C@@H]1C[C@@H](Oc2cc(-c3csc(NC(C)C)n3)nc3c(Cl)c(OCCN4CCOCC4(C)C)ccc23)CN1C(=O)[C@@H](NC(=O)O[C@@H]1C[C@@H]2C[C@@H]2C1)C(C)(C)C)C(=O)O", "Papp A→B", "×10⁻⁶ cm/s", 6.6),
    ("CC[C@@H]1C[C@]1(NC(=O)[C@@H]1C[C@@H](Oc2cc(-c3csc(NC(C)C)n3)nc3c(Cl)c(OC)ccc23)CN1C(=O)[C@@H](NC(=O)O[C@@H]1C[C@@H]2[C@H](C1)C2(F)F)C(C)(C)C)C(=O)O", "Papp A→B", "×10⁻⁶ cm/s", 6.8),
    ("CC[C@@H]1C[C@]1(NC(=O)[C@@H]1C[C@@H](Oc2cc(-c3csc(NC(C)C)n3)nc3c(Cl)c(OC)ccc23)CN1C(=O)[C@@H](NC(=O)O[C@@H]1C[C@@H]2C[C@@H]2C1)C(C)(C)C)C(=O)O", "Papp A→B", "×10⁻⁶ cm/s", 7.3),
]
